System: Key Grass and Sedge Weeds as well as Grass Crops
PROCEDURE DETAILS: Post-emergent Test II herbicidal activity (Table 16)
Type: in vivo
APPLIED CONDITIONS: Triticum aestivum, post-emergence, 336 h, wheat, spring (Triticum aestivum), 70 g ai/ha, 14 d, read-out: Visual Growth Reduction (%) 14 Days After Application, TRZAS
QUANTITY NAME: pest or weed control at 70 g/ha

Take a look at these entries with their results.
COMPOUND | pest or weed control at 70 g/ha
Nc1c(F)c(-c2ccc3ccoc3c2)nc(C(=O)O)c1Cl [Compound 2.08] | 0 to 29%
COC(=O)c1nc(-c2ccc(Cl)c3ccoc23)cc(N)c1Cl [Compound 2.25] | 0 to 29%
COC(=O)c1nc(-c2cc3[nH]ccc3cc2F)c(F)c(N)c1Cl [Compound 1.13] | 0 to 29%
COC(=O)c1nc(-c2ccc3cc[nH]c3c2F)c(F)c(N)c1OC [Compound 1.20] | 45 to 59%

Now consider a different compound.
Request: Tell me its pest or weed control at 70 g/ha given COC(=O)c1nc(-c2cc3[nH]ccc3cc2F)cc(N)c1Cl [Compound 1.25] as the entry.
Response: 0 to 29%

----------
compounds and their reported pest or weed control at 35 g/ha
System: Key Broadleaf Weed and Crop Species
PROCEDURE DETAILS: Post-emergent Test II herbicidal activity (Table 15)
Format: in vivo
APPLIED CONDITIONS: Helianthus annuus, post-emergence, 336 h, sunflower (Helianthus annuus), 35 g ai/ha, 14 d, read-out: Visual Growth Reduction (%) 14 Days After Application, HELAN

Request: Tell me its pest or weed control at 35 g/ha given COC(=O)c1nc(-c2cccc3ccsc23)c(F)c(N)c1Cl [Compound 3.24] as the entry.
Response: 60 to 74%

Request: Tell me its pest or weed control at 35 g/ha given COC(=O)c1nc(-c2ccc3[nH]ncc3c2)c(F)c(N)c1Cl [Compound 4.01] as the entry.
Response: 0 to 29%

----------
Test system: Key Broadleaf Weed and Crop Species
PROCEDURE DETAILS: Post-emergent Test II herbicidal activity (Table 15)
Type: in vivo
APPLIED CONDITIONS: Brassica napus, post-emergence, 336 h, oilseed rape, canola (Brassica napus), 140 g ai/ha, 14 d, read-out: Visual Growth Reduction (%) 14 Days After Application, BRSNN
QUANTITY NAME: pest or weed control at 140 g/ha

SMILES NOTATION | pest or weed control at 140 g/ha
COC(=O)c1nc(-c2ccc3occc3c2)nc(N)c1OC | 85 to 94%
COC(=O)c1nc(-c2cccc3cc[nH]c23)c(F)c(N)c1Cl | 0 to 29%
Cc1c(-c2ccc3cc[nH]c3c2)nc(C(=O)O)c(Cl)c1N | 85 to 94%
COC(=O)c1nc(-c2ccc3ccsc3c2)c(F)c(N)c1Cl | 30 to 44%
COC(=O)c1nc(-c2ccc3ccn(C)c3c2)c(F)c(N)c1Cl | 0 to 29%
COC(=O)c1nc(-c2ccc(Cl)c3[nH]ccc23)nc(N)c1OC | 0 to 29%
COC(=O)c1nc(-c2ccc(Cl)c3occc23)nc(N)c1OC | 45 to 59%
COC(=O)c1nc(-c2ccc(Cl)c3occc23)c(F)c(N)c1Cl | 60 to 74%

Now consider a different molecule.
Request: With Key Broadleaf Weed and Crop Species as the test system, provide measured pest or weed control at 140 g/ha for this molecule: Cc1c(-c2ccc3ccsc3c2)nc(C(=O)O)c(Cl)c1N
Response: 0 to 29%

----------
compounds and their reported pest or weed control at 70 g/ha
System: Key Broadleaf Weed and Crop Species
PROCEDURE DETAILS: Post-emergent Test II herbicidal activity (Table 15)
Format: in vivo
APPLIED CONDITIONS: Abutilon theophrasti, post-emergence, 336 h, velvetleaf (Abutilon theophrasti), 70 g ai/ha, 14 d, read-out: Visual Growth Reduction (%) 14 Days After Application, ABUTH

COMPOUND | pest or weed control at 70 g/ha
COC(=O)c1nc(-c2ccc3cc[nH]c3c2)c(Cl)c(N)c1Cl [Compound 1.05] | 95 to 100%
COC(=O)c1nc(-c2cccc3ccsc23)c(F)c(N)c1Cl [Compound 3.24] | 0 to 29%
Nc1nc(-c2ccc(Cl)c3occc23)nc(C(=O)O)c1Cl [Compound 2.23] | 0 to 29%
COC(=O)c1nc(-c2ccc3sccc3c2)c(Cl)c(N)c1Cl [Compound 3.01] | 60 to 74%

Request: Tell me its pest or weed control at 70 g/ha given COC(=O)c1nc(-c2cc3sccc3cc2F)c(F)c(N)c1Cl [Compound 3.14] as the entry.
Response: 0 to 29%

----------
Tested on: Key Broadleaf Weed and Crop Species
PROCEDURE DETAILS: Post-emergent Test II herbicidal activity (Table 15)
Type: in vivo
APPLIED CONDITIONS: Brassica napus, post-emergence, 336 h, oilseed rape, canola (Brassica napus), 140 g ai/ha, 14 d, read-out: Visual Growth Reduction (%) 14 Days After Application, BRSNN
QUANTITY NAME: pest or weed control at 140 g/ha

MOLECULE | MEASURED VALUE
COC(=O)c1nc(-c2ccc3cc[nH]c3c2)nc(N)c1OC [Compound 1.32] | 60 to 74%

Request: Tell me its pest or weed control at 140 g/ha given COC(=O)c1nc(-c2ccc3ocnc3c2)c(F)c(N)c1Cl [Compound 5.01] as the entry.
Response: 95 to 100%

Request: Tell me its pest or weed control at 140 g/ha given COC(=O)c1nc(-c2cc3ccoc3cc2F)cc(N)c1Cl [Compound 2.04] as the entry.
Response: 30 to 44%

Request: Tell me its pest or weed control at 140 g/ha given COC(=O)c1nc(-c2ccc3sccc3c2)c(C)c(N)c1Cl [Compound 3.06] as the entry.
Response: 45 to 59%

Request: Tell me its pest or weed control at 140 g/ha given Nc1c(Cl)c(C(=O)O)nc(-c2ccc3sccc3c2)c1Cl [Compound 3.02] as the entry.
Response: 0 to 29%

----------
Tested on: Key Broadleaf Weed and Crop Species
PROCEDURE DETAILS: Post-emergent Test II herbicidal activity (Table 15)
Assay type: in vivo
APPLIED CONDITIONS: Helianthus annuus, post-emergence, 336 h, sunflower (Helianthus annuus), 35 g ai/ha, 14 d, read-out: Visual Growth Reduction (%) 14 Days After Application, HELAN
molecules and their reported pest or weed control at 35 g/ha

Take a look at these entries with their results.
SMILES NOTATION | QUANTITY NAME | MEASURED VALUE
Nc1c(F)c(-c2cc3[nH]ccc3cc2F)nc(C(=O)O)c1Cl | pest or weed control at 35 g/ha | 60 to 74%
COC(=O)c1nc(-c2ccc(Cl)c3[nH]ccc23)cc(N)c1Cl | pest or weed control at 35 g/ha | 0 to 29%
Nc1cc(-c2ccc3cc[nH]c3c2F)nc(C(=O)O)c1Cl | pest or weed control at 35 g/ha | 60 to 74%
COC(=O)c1nc(-c2ccc3sccc3c2)c(Cl)c(N)c1Cl | pest or weed control at 35 g/ha | 75 to 84%
COC(=O)c1nc(-c2cc3sccc3cc2F)cc(N)c1Cl | pest or weed control at 35 g/ha | 0 to 29%
COC(=O)c1nc(-c2cc3ccoc3cc2F)cc(N)c1Cl | pest or weed control at 35 g/ha | 0 to 29%

Request: With Key Broadleaf Weed and Crop Species as the test system, provide measured pest or weed control at 35 g/ha for this molecule: Nc1cc(-c2ccc3cc[nH]c3c2)nc(C(=O)O)c1Cl
Response: 75 to 84%

Request: With Key Broadleaf Weed and Crop Species as the test system, provide measured pest or weed control at 35 g/ha for this molecule: COC(=O)c1nc(-c2cc3[nH]ccc3cc2F)c(F)c(N)c1Cl
Response: 45 to 59%

Request: With Key Broadleaf Weed and Crop Species as the test system, provide measured pest or weed control at 35 g/ha for this molecule: COC(=O)c1nc(-c2ccc(Cl)c3cc[nH]c23)cc(N)c1Cl
Response: 0 to 29%

----------
molecules and their reported pest or weed control at 70 g/ha
Test system: Key Broadleaf Weed and Crop Species
PROCEDURE DETAILS: Post-emergent Test II herbicidal activity (Table 15)
Format: in vivo
APPLIED CONDITIONS: Abutilon theophrasti, post-emergence, 336 h, velvetleaf (Abutilon theophrasti), 70 g ai/ha, 14 d, read-out: Visual Growth Reduction (%) 14 Days After Application, ABUTH

Take a look at these entries with their results.
SMILES NOTATION | pest or weed control at 70 g/ha
Nc1cc(-c2cc3[nH]ccc3cc2F)nc(C(=O)O)c1Cl | 0 to 29%
COC(=O)c1nc(-c2ccc3cc[nH]c3c2F)cc(N)c1Cl | 95 to 100%
Nc1cc(-c2ccc3ccsc3c2)nc(C(=O)O)c1Cl | 60 to 74%

Request: Tell me its pest or weed control at 70 g/ha given Nc1c(Cl)c(C(=O)O)nc(-c2ccc3sccc3c2)c1Cl as the entry.
Response: 0 to 29%

Request: Tell me its pest or weed control at 70 g/ha given COC(=O)c1nc(-c2ccc3cc[nH]c3c2)nc(N)c1OC as the entry.
Response: 0 to 29%

Request: Tell me its pest or weed control at 70 g/ha given COC(=O)c1nc(-c2ccc3[nH]ccc3c2)c(F)c(N)c1Cl as the entry.
Response: 0 to 29%

Request: Tell me its pest or weed control at 70 g/ha given COC(=O)c1nc(-c2ccc(Cl)c3ccoc23)c(F)c(N)c1Cl as the entry.
Response: 75 to 84%

Request: Tell me its pest or weed control at 70 g/ha given COC(=O)c1nc(-c2ccc3ccoc3c2F)nc(N)c1OC as the entry.
Response: 95 to 100%

Request: Tell me its pest or weed control at 70 g/ha given COC(=O)c1nc(-c2ccc3c(ccn3C)c2)c(F)c(N)c1Cl as the entry.
Response: 0 to 29%
